Target: acetylcholine receptor (Homo sapiens, UniProt P02708)
Sequence (P02708 21-457): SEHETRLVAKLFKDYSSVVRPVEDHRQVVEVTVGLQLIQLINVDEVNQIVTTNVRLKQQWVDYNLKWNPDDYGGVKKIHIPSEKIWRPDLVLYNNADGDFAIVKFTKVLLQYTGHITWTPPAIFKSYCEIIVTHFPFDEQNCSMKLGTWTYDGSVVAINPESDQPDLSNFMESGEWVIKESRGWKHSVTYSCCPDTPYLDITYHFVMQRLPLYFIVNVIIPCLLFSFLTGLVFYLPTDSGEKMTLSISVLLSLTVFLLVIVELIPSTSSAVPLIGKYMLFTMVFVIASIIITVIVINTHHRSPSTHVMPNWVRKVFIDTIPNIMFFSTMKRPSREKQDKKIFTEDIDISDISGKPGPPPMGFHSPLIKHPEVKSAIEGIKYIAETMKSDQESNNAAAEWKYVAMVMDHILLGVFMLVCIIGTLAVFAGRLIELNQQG
Test: SPR binding affinity (RU) of optimized 5mer/6mer/7mer peptides, Examples 6-7
Details: 6mer-1 Top sequence; SPR; peptides tested at 10 μM
property.label: Binding affinity (Ru)
Answers are plain numbers, in Ru.

The cases that follow already have their Binding affinity on record.
6mer-1-235 (KKRYCR): 148
6mer-1-209 (RKGYTR): 121
6mer-1-389 (RKLFCK): 125
6mer-1-203 (RRQITR): 142
6mer-1-331 (RKRITR): 128
6mer-1-299 (KRWLSK): 139

Go through the list and state Binding affinity for each entry.
1. 6mer-1-282 (RRRRYR)
2. 6mer-1-372 (RKLRSK)
3. 6mer-1-338 (KKQVLK)
4. 6mer-1-233 (KKWQSR)
5. 6mer-1-334 (RRRRLR)
6. 6mer-1-332 (KKRVQK)

1. 121
2. 145
3. 127
4. 128
5. 154
6. 122

Go through the list and state Binding affinity for each entry.
1. 6mer-1-399 (KRWILR)
2. 6mer-1-388 (RRLLQR)
3. 6mer-1-237 (RKSRYK)
4. 6mer-1-347 (KKQQSK)
5. 6mer-1-333 (RKRQSR)

125
142
137
126
135
